normalized growth listing for selected molecules.
- assay explanation: chemical genetic growth profiling, strain panel (AID 1159580);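 also: tested at 20 µM; growth read once vehicle control cultures reached saturation at 30 °C; 1 = growth at the plate median or of vehicle wells; lower values mean less growth of the strain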
- assay conditions: S. cerevisiae deletion strains, growth OD, locus YNL067W, strain RPL9B, hits give low values
Screen size: about 5,500 compounds; about 2,000 (36%) were called active. Inconclusive results (about 18%) are left out. The list shows a part of the results.
assay readout: normalized growth

{"molecule": "COc1c2c(c(CC=C(C)C)c3oc(=O)c(-c4ccc(O)cc4)c(O)c13)OC(C)(C)C=C2", "result value": 0.938}
{"molecule": "COc1cc(OC)c2c(c1)OC(c1ccccc1)CC2=O (configuration not stated)", "result value": 0.993}
{"molecule": "COc1ccc(-c2c(O)c3cc4c(c(CC=C(C)C)c3oc2=O)OC(C)(C)CC4)cc1", "result value": 1.01}
{"molecule": "O=C(O)C1CC([C@@H]2CCCCN2)CN2CCCCC12 (some centres not stated)", "result value": 1.05}
{"molecule": "O=C(O)c1cc(=O)c2ccc(Cl)cc2[nH]1", "result value": 1.03}
{"molecule": "Cc1ccc(O)cc1", "result value": 1.02}
{"molecule": "C/C=C(/C(=C/C)c1ccc(O)cc1)c1ccc(O)cc1", "result value": 0.863}
{"molecule": "CCOC(=O)/C=C(\\C)OP(=O)(OC)OC", "result value": 0.982}
{"molecule": "c1ccc(CC2=NCCN2)cc1", "result value": 0.957}
{"molecule": "O=C1C[C@@H](c2ccccc2)Oc2cc(O)cc(O)c21", "result value": 0.884}
{"molecule": "c1ccc(CN(CC2=NCCN2)c2ccccc2)cc1", "result value": 1.02}
{"molecule": "O=C1C[C@@H](c2ccc(O)cc2)Oc2cc(O)cc(O)c21", "result value": 1.01}
{"molecule": "CN=C(NC#N)NCCSCc1nc[nH]c1C", "result value": 1}
{"molecule": "Nc1nc2[nH]c(=O)c(=O)[nH]c2c(=O)[nH]1", "result value": 1.02}
{"molecule": "O=C1CC(c2ccc(O)cc2)Oc2ccccc21 (configuration not stated)", "result value": 0.81}
{"molecule": "COc1cc(O)c(C(=O)c2ccccc2)cc1O", "result value": 1.01}
{"molecule": "COc1ccc(C(=O)c2ccccc2)c(O)c1", "result value": 0.889}
{"molecule": "O=C(/C=C/C=C/c1ccc2c(c1)OCO2)N1CCCCC1", "result value": 0.907}
{"molecule": "NC(=O)N1c2ccccc2CC(=O)c2ccccc21", "result value": 1.02}
{"molecule": "COC(=O)COc1ccc(Cl)cc1Cl", "result value": 1}
{"molecule": "CC(C)N(C(=O)CCl)c1ccccc1", "result value": 1.04}
{"molecule": "Cc1ccc2c(c1)CC[C@H]1CC(=O)CC[C@]21C", "result value": 0.999}
{"molecule": "COc1c(CC=C(C)C)c2c(c3oc(=O)c(-c4ccc(O)cc4)c(O)c13)C=CC(C)(C)O2", "result value": 0.97}
{"molecule": "O=C1CC(c2ccccc2)Oc2ccccc21 (configuration not stated)", "result value": 1.03}
{"molecule": "COc1ccc(C2CC(=O)c3ccc(OC)cc3O2)cc1 (configuration not stated)", "result value": 0.87}
{"molecule": "COc1c(O)cc2oc3cc(O)c(CC=C(C)C)c(O)c3c(=O)c2c1CC=C(C)C", "result value": 0.719}
{"molecule": "C[C@@H]1O[C@@H](O[C@H]2[C@@H](Oc3cc(O)c4c(c3)O[C@H](c3ccc(O)cc3)CC4=O)O[C@H](CO)[C@@H](O)[C@@H]2O)[C@H](O)[C@H](O)[C@H]1O", "result value": 1}
{"molecule": "CC(C)[N+](C)(CCOC(=O)C1c2ccccc2Oc2ccccc21)C(C)C", "result value": 1.01}
{"molecule": "CCCCCC(=O)O[C@]1(C(C)=O)CCC2C3CCC4=CC(=O)CC[C@]4(C)C3CC[C@@]21C (some centres not stated)", "result value": 0.998}
{"molecule": "COc1ccc(CC2c3cc(OC)c(OC)cc3CCN2C)cc1OC (configuration not stated)", "result value": 0.959}
{"molecule": "COc1ccc2c(c1)OC[C@@H](Cc1ccc(OC)c(OC)c1)[C@@H]2O", "result value": 1.01}
{"molecule": "COc1ccc(C(=O)c2ccccc2O)c(O)c1", "result value": 0.892}
{"molecule": "CC1(C)C2CC[C@]3(C)C(C(=O)C=C4[C@H]5C[C@@](C)(C(=O)O)CC[C@]5(C)CC[C@]43C)[C@@]2(C)CC[C@@H]1O (some centres not stated)", "result value": 0.98}
{"molecule": "O=c1ccc2ccccc2o1", "result value": 1.02}
{"molecule": "CC(C(=O)O)c1ccc2c(c1)[nH]c1ccc(Cl)cc12 (configuration not stated)", "result value": 1.03}
{"molecule": "COc1ccc2c(c1)[C@@]1(C)CCC(=O)C[C@H]1CC2", "result value": 0.975}
{"molecule": "CC(=O)O[C@]1(C(C)=O)CCC2C3C=C(C)C4=CC(=O)CCC4(C)C3CCC21C (some centres not stated)", "result value": 0.914}
{"molecule": "OCCN(CCO)c1nc(N2CCCCC2)c2nc(N(CCO)CCO)nc(N3CCCCC3)c2n1", "result value": 1}
{"molecule": "Cn1cc[nH]c1=S", "result value": 0.997}
{"molecule": "CCCCCC(C)N (configuration not stated)", "result value": 1.01}
{"molecule": "CCN(CC)C(=S)SSC(=S)N(CC)CC", "result value": 0.0505}
{"molecule": "CC(=O)O[C@]1(C(C)=O)CCC2C3C[C@H](C)C4=CC(=O)CC[C@]4(C)C3CC[C@@]21C (some centres not stated)", "result value": 0.993}
